System under test: T1, Human LILRB3 on transiently transfected HEK293-6E cells (human, UniProt O75022 24-631)
T1 construct: whole, on cells; also called hLILRB3
Assay protocol: flow cytometry, transiently transfected HEK293-6E cells
Assay readout: binding result

- Binder: "B2H1-55 (antibody, V domains shown, Humanized variant, human IgG1 / kappa; also called humanized variant B2H1-55; humanized LILRB2 antibody B2H1-55) VH: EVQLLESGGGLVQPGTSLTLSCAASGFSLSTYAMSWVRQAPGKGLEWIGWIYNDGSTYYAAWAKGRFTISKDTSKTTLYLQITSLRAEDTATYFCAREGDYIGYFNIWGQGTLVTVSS VL: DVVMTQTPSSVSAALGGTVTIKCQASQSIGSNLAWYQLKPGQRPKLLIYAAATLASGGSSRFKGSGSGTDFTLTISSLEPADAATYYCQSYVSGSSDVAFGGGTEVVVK"
  Assay readout: "binding result"
  Meas value: "no binding"
- Binder: "B2H1-52 (antibody, V domains shown, Humanized variant, human IgG1 / kappa) VH: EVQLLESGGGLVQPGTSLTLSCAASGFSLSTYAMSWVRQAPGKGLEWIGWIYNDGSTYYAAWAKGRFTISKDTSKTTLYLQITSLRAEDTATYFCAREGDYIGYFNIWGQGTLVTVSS VL: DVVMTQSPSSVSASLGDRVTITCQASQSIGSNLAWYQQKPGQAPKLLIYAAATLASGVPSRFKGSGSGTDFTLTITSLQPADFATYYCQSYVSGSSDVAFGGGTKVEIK"
  Assay readout: "binding result"
  Meas value: "no binding"
- Binder: "B2H1-35 (antibody, V domains shown, Humanized variant, human IgG1 / kappa) VH: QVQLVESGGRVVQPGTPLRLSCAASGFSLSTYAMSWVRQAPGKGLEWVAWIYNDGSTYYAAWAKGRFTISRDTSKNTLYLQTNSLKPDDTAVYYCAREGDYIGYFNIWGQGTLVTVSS VL: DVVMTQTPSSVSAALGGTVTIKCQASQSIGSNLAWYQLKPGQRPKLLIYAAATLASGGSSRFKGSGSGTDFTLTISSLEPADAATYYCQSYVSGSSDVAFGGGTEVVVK"
  Assay readout: "binding result"
  Meas value: "no binding"
- Binder: "B2H1-11 (antibody, V domains shown, Humanized variant, human IgG1 / kappa) VH: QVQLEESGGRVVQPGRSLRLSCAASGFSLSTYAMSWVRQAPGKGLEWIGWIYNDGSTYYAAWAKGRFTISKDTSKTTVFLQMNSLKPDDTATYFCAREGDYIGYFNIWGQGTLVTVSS VL: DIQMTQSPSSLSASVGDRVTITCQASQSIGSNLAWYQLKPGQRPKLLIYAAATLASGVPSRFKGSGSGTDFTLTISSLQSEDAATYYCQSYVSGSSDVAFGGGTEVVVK"
  Assay readout: "binding result"
  Meas value: "no binding"

Taken from patent US20240132589A1.
